Cited source: the supplement of paper PMC10567573

B1: CLCN6 (parent)
chain: VGEIVGIITRHNLTYEFLQARLRQ

variants of: B1; experiment: protein stability index of a GFP-peptide fusion (GPS, HEK-293T) (PSI 1-6); higher = more stable; settings: c terminus: a fixed tail appended;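 note: lentivirally expressed fusions sorted by FACS into six bins by GFP to DsRed ratio, PSI derived from sequencing read proportions per bin multiplied by bin number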
Would you mind labelling by protein stability index? At or over 2 is label 1, under is label 0.

mutantlabel=A20Y classlabel="label 0"
mutantlabel=L22Q classlabel="label 1"
mutantlabel=I4T classlabel="label 0"
mutantlabel=I4K classlabel="label 1"
mutantlabel=T9N classlabel="label 1"
mutantlabel=V1I classlabel="label 1"
mutantlabel=R21V classlabel="label 0"
mutantlabel=I4E classlabel="label 1"
mutantlabel=L18R classlabel="label 1"
mutantlabel=R10P classlabel="label 0"
mutantlabel=R10Y classlabel="label 0"
mutantlabel=R21W classlabel="label 1"
mutantlabel=N12E classlabel="label 0"
mutantlabel=N12H classlabel="label 1"
mutantlabel=E16H classlabel="label 1"
mutantlabel=Q24K classlabel="label 0"
mutantlabel=V5G classlabel="label 1"
mutantlabel=F17S classlabel="label 1"
mutantlabel=F17C classlabel="label 0"
mutantlabel=T14Q classlabel="label 0"
mutantlabel=Q19G classlabel="label 0"
mutantlabel=I4Q classlabel="label 1"
mutantlabel=I8A classlabel="label 0"
mutantlabel=T14F classlabel="label 1"
mutantlabel=L22N classlabel="label 0"
mutantlabel=T9D classlabel="label 0"
mutantlabel=E3Q classlabel="label 1"
mutantlabel=V5N classlabel="label 0"
mutantlabel=I8G classlabel="label 1"
mutantlabel=I4S classlabel="label 1"
mutantlabel=L13I classlabel="label 1"
mutantlabel=N12R classlabel="label 1"
mutantlabel=T9G classlabel="label 1"
mutantlabel=V5M classlabel="label 1"
mutantlabel=R23V classlabel="label 1"
mutantlabel=R10K classlabel="label 1"
mutantlabel=T9K classlabel="label 0"
mutantlabel=L18G classlabel="label 0"
mutantlabel=Q19E classlabel="label 1"
mutantlabel=T14A classlabel="label 1"
mutantlabel=N12P classlabel="label 0"
mutantlabel=F17P classlabel="label 1"
mutantlabel=G2A classlabel="label 1"
